- System: HT29 cells
- Experimental protocol: Cellular uptake of Pt by ICP-MS
- Format: cell-based
- Run conditions: HT29, 3 µM, 24 h
Hi there, I'd appreciate the recorded Intracellular Concentration for every entry that follows.
Form entry: value (nmol/10^6 cells) — number only.

// Intracellular Concentration lookup, molecule = Cc1cc2cccnc2c2ncccc12.N[C@H]1CCCC[C@@H]1N.O=[N+]([O-])[O-].O=[N+]([O-])[O-].[Pt+2] [Pt^II5MESS] , result: 21.18

// Intracellular Concentration lookup, molecule = Cc1cc2cccnc2c2ncccc12.N[C@H]1CCCC[C@@H]1N.O=[N+]([O-])[O-].O=[N+]([O-])[O-].[OH][Pt+2][OH] [Pt^IV5MESS(OH)2] , result: 7.37

// Intracellular Concentration lookup, molecule = N[C@H]1CCCC[C@@H]1N.O=[N+]([O-])[O-].O=[N+]([O-])[O-].[Pt+2].c1cnc2c(c1)ccc1cccnc12 , result: 15.26

// Intracellular Concentration lookup, molecule = Cc1c(C)c2cccnc2c2ncccc12.N[C@H]1CCCC[C@@H]1N.O=[N+]([O-])[O-].O=[N+]([O-])[O-].[OH][Pt+2][OH] [Pt^IV56MESS(OH)2] , result: 9.14

// Intracellular Concentration lookup, molecule = Cc1c(C)c2cccnc2c2ncccc12.N[C@H]1CCCC[C@@H]1N.O=[N+]([O-])[O-].O=[N+]([O-])[O-].[Pt+2] [Pt^II56MESS] , result: 23.28

// Intracellular Concentration lookup, molecule = N[C@H]1CCCC[C@@H]1N.O=[N+]([O-])[O-].O=[N+]([O-])[O-].[OH-].[OH-].[Pt+4].c1cnc2c(c1)ccc1cccnc12 , result: 5.18

// Intracellular Concentration lookup, molecule = N.N.[Cl][Pt][Cl] [Cisplatin, cisplatin] , result: 1.02

---

- Test system: MDA−MB−231 cells
- Experimental protocol: Cellular uptake of Pt by ICP-MS
- Assay type: cell-based
- Run conditions: MDA−MB−231, extracellular 3 µM, 1 h
Hi there, I'd appreciate the recorded Intracellular/extracellular ratio for every entry that follows.
// no unit string in output, number only

The reported MDA−MB−231 cells Intracellular/extracellular ratio of Cc1cc2cccnc2c2ncccc12.N[C@H]1CCCC[C@@H]1N.O=[N+]([O-])[O-].O=[N+]([O-])[O-].[Pt+2] is 61.30

The reported MDA−MB−231 cells Intracellular/extracellular ratio of Cc1c(C)c2cccnc2c2ncccc12.N[C@H]1CCCC[C@@H]1N.O=[N+]([O-])[O-].O=[N+]([O-])[O-].[OH][Pt+2][OH] is 26.14

The reported MDA−MB−231 cells Intracellular/extracellular ratio of N[C@H]1CCCC[C@@H]1N.O=[N+]([O-])[O-].O=[N+]([O-])[O-].[OH-].[OH-].[Pt+4].c1cnc2c(c1)ccc1cccnc12 is 35.47

The reported MDA−MB−231 cells Intracellular/extracellular ratio of Cc1c(C)c2cccnc2c2ncccc12.N[C@H]1CCCC[C@@H]1N.O=[N+]([O-])[O-].O=[N+]([O-])[O-].[Pt+2] is 122.42

The reported MDA−MB−231 cells Intracellular/extracellular ratio of N[C@H]1CCCC[C@@H]1N.O=[N+]([O-])[O-].O=[N+]([O-])[O-].[Pt+2].c1cnc2c(c1)ccc1cccnc12 is 126.21

The reported MDA−MB−231 cells Intracellular/extracellular ratio of Cc1cc2cccnc2c2ncccc12.N[C@H]1CCCC[C@@H]1N.O=[N+]([O-])[O-].O=[N+]([O-])[O-].[OH][Pt+2][OH] is 27.69

---

- Tested on: HT29 cells
- Experimental protocol: Cellular uptake of Pt by ICP-MS
- Assay type: cell-based
- Run conditions: HT29, 3 µM, 6 h
- Procedure: A final concentration of 10^6 cells/well of MDA−MB−231 and HT29 cells were seeded in 6-well plates and incubated overnight to adhere. The cells were then treated with a final concentration of 3 µM of either Pt^II or Pt^IV complexes. After 0, 0.5, 1, 3, 6, 12, 24 or 30 h, the medium was removed, and the cells were washed three times with cold PBS and allowed to dry. […] The results represent an average of three different experiments run in triplicate (±SEM) and expressed as nmol/10^6 cells or µM/cell. […]
Tick condition met if Intracellular Concentration is 0.8 nmol/10^6 cells or greater. Tick condition not met if Intracellular Concentration is less than 0.8 nmol/10^6 cells.

# input Does Intracellular Concentration meet or surpass 0.8 nmol/10^6 cells for N.N.[Cl][Pt][Cl] [Cisplatin, cisplatin] ?
# output condition not met

# input Does Intracellular Concentration meet or surpass 0.8 nmol/10^6 cells for Cc1cc2cccnc2c2ncccc12.N[C@H]1CCCC[C@@H]1N.O=[N+]([O-])[O-].O=[N+]([O-])[O-].[OH][Pt+2][OH] ?
# output condition not met

# input Does Intracellular Concentration meet or surpass 0.8 nmol/10^6 cells for N[C@H]1CCCC[C@@H]1N.O=[N+]([O-])[O-].O=[N+]([O-])[O-].[OH-].[OH-].[Pt+4].c1cnc2c(c1)ccc1cccnc12 ?
# output condition not met

# input Does Intracellular Concentration meet or surpass 0.8 nmol/10^6 cells for Cc1c(C)c2cccnc2c2ncccc12.N[C@H]1CCCC[C@@H]1N.O=[N+]([O-])[O-].O=[N+]([O-])[O-].[Pt+2] ?
# output condition met

# input Does Intracellular Concentration meet or surpass 0.8 nmol/10^6 cells for N[C@H]1CCCC[C@@H]1N.O=[N+]([O-])[O-].O=[N+]([O-])[O-].[Pt+2].c1cnc2c(c1)ccc1cccnc12 ?
# output condition met

# input Does Intracellular Concentration meet or surpass 0.8 nmol/10^6 cells for Cc1cc2cccnc2c2ncccc12.N[C@H]1CCCC[C@@H]1N.O=[N+]([O-])[O-].O=[N+]([O-])[O-].[Pt+2] ?
# output condition met

# input Does Intracellular Concentration meet or surpass 0.8 nmol/10^6 cells for Cc1c(C)c2cccnc2c2ncccc12.N[C@H]1CCCC[C@@H]1N.O=[N+]([O-])[O-].O=[N+]([O-])[O-].[OH][Pt+2][OH] ?
# output condition met

---

- Tested on: MDA−MB−231 cells
- Experimental protocol: Cellular uptake of Pt by ICP-MS
- Format: cell-based
- Run conditions: MDA−MB−231, extracellular 3 µM, 0.5 h
Hi there, I'd appreciate the recorded Intracellular/extracellular ratio for every entry that follows.
// no unit string in output, number only

// Intracellular/extracellular ratio lookup, molecule = Cc1cc2cccnc2c2ncccc12.N[C@H]1CCCC[C@@H]1N.O=[N+]([O-])[O-].O=[N+]([O-])[O-].[OH][Pt+2][OH] , result: 35.23

// Intracellular/extracellular ratio lookup, molecule = N[C@H]1CCCC[C@@H]1N.O=[N+]([O-])[O-].O=[N+]([O-])[O-].[OH-].[OH-].[Pt+4].c1cnc2c(c1)ccc1cccnc12 , result: 20.07

// Intracellular/extracellular ratio lookup, molecule = N[C@H]1CCCC[C@@H]1N.O=[N+]([O-])[O-].O=[N+]([O-])[O-].[Pt+2].c1cnc2c(c1)ccc1cccnc12 , result: 72.01

// Intracellular/extracellular ratio lookup, molecule = Cc1c(C)c2cccnc2c2ncccc12.N[C@H]1CCCC[C@@H]1N.O=[N+]([O-])[O-].O=[N+]([O-])[O-].[Pt+2] , result: 92.36

// Intracellular/extracellular ratio lookup, molecule = Cc1c(C)c2cccnc2c2ncccc12.N[C@H]1CCCC[C@@H]1N.O=[N+]([O-])[O-].O=[N+]([O-])[O-].[OH][Pt+2][OH] , result: 50.71

// Intracellular/extracellular ratio lookup, molecule = Cc1cc2cccnc2c2ncccc12.N[C@H]1CCCC[C@@H]1N.O=[N+]([O-])[O-].O=[N+]([O-])[O-].[Pt+2] , result: 69.63

---

Hi there, I'd appreciate the recorded ROS production for every entry that follows.
- Tested on: MDA−MB−231 cells
- Experimental protocol: DCFDA cellular ROS detection assay
- Assay type: cell-based
- Run conditions: MDA−MB−231, 72 h, complexes at IC50, TBHP 20 µM
Form entry: value (RFU) — number only.

// ROS production lookup, compound = Cc1c(C)c2cccnc2c2ncccc12.N[C@H]1CCCC[C@@H]1N.O=[N+]([O-])[O-].O=[N+]([O-])[O-].[Pt+2] , result: 446.09

// ROS production lookup, compound = N[C@H]1CCCC[C@@H]1N.O=[N+]([O-])[O-].O=[N+]([O-])[O-].[OH-].[OH-].[Pt+4].c1cnc2c(c1)ccc1cccnc12 , result: 275.09

// ROS production lookup, compound = Cc1cc2cccnc2c2ncccc12.N[C@H]1CCCC[C@@H]1N.O=[N+]([O-])[O-].O=[N+]([O-])[O-].[Pt+2] , result: 399.97
